system under test: T1, human MSR1 extracellular domain expressed with a N-terminal nonahistidine tag (human, UniProt P21757 77-451)
T1 construct: extracellular domain; also called His9-hMSR1; His-hMSR1
T1 sequence: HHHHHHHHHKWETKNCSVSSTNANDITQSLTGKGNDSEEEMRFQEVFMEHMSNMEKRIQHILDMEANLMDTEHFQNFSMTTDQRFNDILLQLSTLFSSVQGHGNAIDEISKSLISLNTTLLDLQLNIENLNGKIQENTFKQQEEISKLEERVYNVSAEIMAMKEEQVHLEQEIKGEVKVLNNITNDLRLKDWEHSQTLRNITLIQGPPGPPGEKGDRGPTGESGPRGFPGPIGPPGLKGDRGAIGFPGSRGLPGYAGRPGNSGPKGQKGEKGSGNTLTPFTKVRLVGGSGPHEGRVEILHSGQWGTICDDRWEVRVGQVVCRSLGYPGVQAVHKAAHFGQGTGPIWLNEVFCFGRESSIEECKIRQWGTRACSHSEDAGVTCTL
measurement description: competition ELISA, plate-coated His9-hMSR1; 300 nM antibody, competitor ligand biot-AGE-BSA
The entries below come with measured % Blocking values attached.
measured endpoint: % Blocking (%)

>  <binder>
H2aM21235N (antibody, mouse IgG2a, V domains shown, Human variable domains with mouse IgG2a Fc) VH: EVQLVESGGGLVQPGGSLRLSCAASGFTFSDHYMDWVRQAPGKGLEWVGRTRNKANSYTTEYAASVSGRFTISRDDSKNSLYLQMNSLKTEDTAVYYCTRAGIIGTLFDYWGQGTLVTVSS VL: DIQMTQSPSSLSASVGDRVTITCRASQIIGRYLNWFQQKPGKVPKLLIYAASSLQRGVPSRFSGSGSGTDFTLTISSLQPEDFATYYCQQSYNTPPITFGQGTRLEIKR

>  <result units>
%

>  <obs value>
-24

$$$$
>  <binder>
H1H27749P-N297Q (antibody, V domains shown, Human IgG1 Fc with N297Q) VH: QVQLQESGPGLVKPSETLSLTCTVSDGSISSYYWSWIRQPPGRGLEWIGFIYYSGSTSYNPSLKSRVTISVDTSMSQFSLKLRSVTAADTAVYYCARGSPFDYWGPGTLVTVSS VL: EIVLTQSPGTLSLSPGERATLSCRASQSVSSSYLAWYQQRPGQAPSLLISGASRRATGIPDRFSGSGSGTDFTLTIRRLEPEDFAMYYCQQYGSSPPTFGGGTKVEIKR

>  <result units>
%

>  <obs value>
-1

$$$$
